Target under test: PDK1 (Homo sapiens (Human), UniProt O15530)
Sequence (O15530 whole entry): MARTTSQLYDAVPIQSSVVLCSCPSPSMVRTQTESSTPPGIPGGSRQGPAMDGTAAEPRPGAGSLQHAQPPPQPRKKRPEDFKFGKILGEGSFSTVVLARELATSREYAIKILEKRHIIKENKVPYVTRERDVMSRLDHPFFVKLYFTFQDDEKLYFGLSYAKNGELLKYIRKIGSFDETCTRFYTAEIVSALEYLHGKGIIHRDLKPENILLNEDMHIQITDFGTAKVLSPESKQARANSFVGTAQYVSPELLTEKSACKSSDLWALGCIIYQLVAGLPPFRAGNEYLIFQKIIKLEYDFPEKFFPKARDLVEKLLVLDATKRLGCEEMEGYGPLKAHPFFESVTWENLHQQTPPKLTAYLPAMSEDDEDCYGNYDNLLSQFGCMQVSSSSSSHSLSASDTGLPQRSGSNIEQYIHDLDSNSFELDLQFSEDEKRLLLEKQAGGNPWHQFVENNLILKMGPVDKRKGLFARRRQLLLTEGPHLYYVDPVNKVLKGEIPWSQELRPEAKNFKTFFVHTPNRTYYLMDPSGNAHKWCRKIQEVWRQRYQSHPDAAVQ
Protocol summary: Kinase selectivity, Mobility shift assay
Format: biochemical
Experimental: Object: In this assay, the inhibitory activity of the test substance on the kinases listed in Table 3 was determined, and therefore the selectivity of the present compound was determined. […] • 3.1 To the 384-well reaction plate was added 5-fold compound dissolved in 10% DMSO at 5 μl/well. • 3.2 To the 384-well reaction plate was added 2.5-fold kinase solution at 10 μl/well. […] The conversion was read from Caliper. […]
Measured attribute: IC50

Fill in the blank: the reported IC50 of Nc1ccc(-c2ccc3ncc4c(=O)[nH]c(=O)n(-c5cccc(C(F)(F)F)c5)c4c3n2)cn1 is ____.
> 10000 nM
